This collection of values is drawn from PubChem BioAssay (NCI).

Each record here notes measured growth inhibition.
test: NCI Yeast Anticancer Drug Screen. Data for the rad50 strain (AID 155);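 further: 0% = growth of vehicle-only cultures of the same strain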; details: S. cerevisiae rad50 strain growth inhibition; at 11.0 µM; hits give high values
About 79,000 compounds went through this panel and 15% of them were active in at least one assay; those are over-represented in the sample as a whole.
Give just the number in %; leave the unit off.

Exercise: Identify growth inhibition associated with the compound CCOC1(c2cccc([N+](=O)[O-])c2)c2ccccc2Oc2ccccc21
Solution: 4

Exercise: Identify growth inhibition associated with the compound NC(=O)C(=O)NNc1ccccc1
Solution: 31

Exercise: Identify growth inhibition associated with the compound O=C(O)c1cc2ccc(Cl)cc2c(O)c1C1=CCCCC1
Solution: 11

Exercise: Identify growth inhibition associated with the compound Nc1nc(N)c2nc(CNc3ccc(C(=O)NC(CCC(=O)O)C(=O)O)cc3F)cnc2n1 (centres undefined)
Solution: 30

Exercise: Identify growth inhibition associated with the compound COc1ccc(C(=O)Oc2ccccc2Br)cc1
Solution: 8

Exercise: Identify growth inhibition associated with the compound c1ccc(CCN2CCc3ccccc3C2)cc1
Solution: 3

* * *

test: NCI Yeast Anticancer Drug Screen. Data for the rad14 strain (AID 159);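 further: 0% = growth of vehicle-treated control cultures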; conditions: S. cerevisiae rad14 strain growth inhibition; at 11.0 µM; hits give high values
This is part of a sample that, as a whole, favours compounds with a hit. Of some 79,000 tested, about 15% had one in any assay. Activity calls are given as the source filed them. No stated cut-off is given here; in the data, active means growth inhibition above about 70%; inactive means the rest.
Each record here notes measured growth inhibition.

CC(O)=NC(Cc1ccc2ccccc2c1)C(O)=NC(Cc1ccc(Cl)cc1)C(O)=NC(Cc1c[nH]c2ccccc12)C(O)=NC(CO)C(O)=NC(Cc1ccc(O)cc1)C(O)=NC(CCCN=C(N)N)C(O)=NC(CC(C)C)C(O)=NC(CCCN=C(N)N)C(=O)N1CCCC1C(O)=NC(C)C(=N)O (stereo not drawn) = 4% (inactive)

Exercise: Identify growth inhibition associated with the compound Clc1ccc(NCNC2Nc3ccccc3N2)cc1Cl
Solution: 13% (inactive)

Exercise: Identify growth inhibition associated with the compound COc1cc(/C=N/Nc2nnc3c4ccccc4c4ncccc4c3n2)cc(OC)c1OC
Solution: 5% (inactive)

Exercise: Identify growth inhibition associated with the compound COc1cccc2c1C(=O)c1c(O)c3c(c(O)c1C2=O)CC(O)(C(O)CO)CC3OC1CC(N2CCOCC2)C(O)C(C)O1 (stereo not drawn)
Solution: 96% (active)

Exercise: Identify growth inhibition associated with the compound O=C1/C(=C/c2ccccc2)CCCC1CN1CCCCC1 (stereo not drawn)
Solution: 92% (active)

Exercise: Identify growth inhibition associated with the compound Cc1cc2c(cc1C)[n+]([O-])c(-c1nc3ccccc3s1)c(N)[n+]2[O-]
Solution: 22% (inactive)

Exercise: Identify growth inhibition associated with the compound Cc1ccc(CC2(OCCN(C)C)CCC(C(C)(C)C)CC2)cc1 (stereo not drawn)
Solution: 15% (inactive)

Exercise: Identify growth inhibition associated with the compound O=C(CSC(=S)N1CCCCC1)Nc1nc2c(s1)CCCC2
Solution: -6% (inactive)

* * *

Each record here notes measured growth inhibition.
assay: NCI Yeast Anticancer Drug Screen. Data for the CLN2oe strain (AID 163);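 further: 0% = growth of vehicle-only control cultures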; settings: S. cerevisiae CLN2oe strain, at 3.7 µM, hits give high values
About 79,000 compounds went through this panel and 15% of them were active in at least one assay; those are over-represented in the sample as a whole.
Give just the number in %; leave the unit off.

Example entries begin here.
C/C=C/SC(=Nc1ccccc1)Nc1ccccc1 = -18
O=C(NCCCNCCN1C(=O)c2cccc3cc([N+](=O)[O-])cc(c23)C1=O)c1cc(-c2ccccc2)nc2ccccc12 = 3
C[C@@](O)(/C=C/[C@H]1CC=CC(=O)O1)[C@@H](C[C@@H](O)\C=C/C=C\C=C\CO)OP(=O)(O)O = 26
CC(=O)SC(C[N+](=O)[O-])c1ccccc1 (stereo not given) = 19

Would you kindly look at the next entry?
Exercise: Identify growth inhibition associated with the molecule CC(C)=NOC(=O)Nc1ccc(Cl)cc1
Solution: -18
